# tested_on: C-C chemokine receptor type 3 (Homo sapiens)
# Sequence (P51677 whole entry): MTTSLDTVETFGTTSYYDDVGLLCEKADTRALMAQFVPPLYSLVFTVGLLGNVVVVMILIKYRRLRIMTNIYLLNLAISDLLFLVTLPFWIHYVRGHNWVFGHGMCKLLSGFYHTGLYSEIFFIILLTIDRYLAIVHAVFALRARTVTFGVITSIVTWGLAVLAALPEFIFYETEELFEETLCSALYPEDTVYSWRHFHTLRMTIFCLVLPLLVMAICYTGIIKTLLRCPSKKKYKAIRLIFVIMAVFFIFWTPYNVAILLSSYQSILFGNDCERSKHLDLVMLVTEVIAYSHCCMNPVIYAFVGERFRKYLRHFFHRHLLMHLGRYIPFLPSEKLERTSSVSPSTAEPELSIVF
# assay_text: In vitro binding activity against C-C chemokine receptor type 3 using [35S]GTP-gamma-S, as radioligand
metric: Ki (nM)

Below: 7 molecules and their reported Ki.
1) Cc1ccccc1CC(=O)NCC1CCCN(C2CCN(Cc3ccc(Cl)c(Cl)c3)CC2)C1 (centres undefined) | 86
2) O=C(NCC1CCCN(C2CCN(Cc3ccc(Cl)c(Cl)c3)CC2)C1)C1CCCCC1 (centres undefined) | 107
3) Cc1ccccc1C(=O)NCC1CCCN(C2CCN(Cc3ccc(Cl)c(Cl)c3)CC2)C1 (centres undefined) | 60
4) O=C(NCC1CCCN(C2CCN(Cc3ccc(Cl)c(Cl)c3)CC2)C1)c1ccc2ccccc2c1 (centres undefined) | 48
5) O=C(NCC1CCCN(C2CCN(Cc3ccc(Cl)c(Cl)c3)CC2)C1)c1nccc2ccccc12 (centres undefined) | 34
6) O=C(NCC1CCCN(C2CCN(Cc3cc(Cl)ccc3Cl)CC2)C1)c1ccc2ncccc2c1 (centres undefined) | 391
7) O=C(NCC1CCCN(C2CCN(C(=O)Cc3ccc(Cl)c(Cl)c3)CC2)C1)c1ccc2ncccc2c1 (centres undefined) | 767

P: CC(c1ccc(Cl)c(Cl)c1)N1CCC(N2CCCC(CNC(=O)c3ccc4ncccc4c3)C2)CC1 (centres undefined)
Q: O=C(NCC1CCCN(C2CCN(Cc3cc(Cl)cc(Cl)c3)CC2)C1)c1ccc2ncccc2c1 (centres undefined)
For the two items P and Q , which reports the higher Ki value? Reply with the label of the item you choose.
Q

Just for reference, ChEMBL document CHEMBL1139618 is where these values come from.
